Target: LGC-50:MOD-1(327-458) (Caenorhabditis elegans, UniProt P41849)
Construct: Plasmid: KSM: lgc-50:mod-1(327-458) (cDNA); MOD-1 residues 327-458 (M3/4 loop)
Sequence (P41849 with tags, fused parts or gaps): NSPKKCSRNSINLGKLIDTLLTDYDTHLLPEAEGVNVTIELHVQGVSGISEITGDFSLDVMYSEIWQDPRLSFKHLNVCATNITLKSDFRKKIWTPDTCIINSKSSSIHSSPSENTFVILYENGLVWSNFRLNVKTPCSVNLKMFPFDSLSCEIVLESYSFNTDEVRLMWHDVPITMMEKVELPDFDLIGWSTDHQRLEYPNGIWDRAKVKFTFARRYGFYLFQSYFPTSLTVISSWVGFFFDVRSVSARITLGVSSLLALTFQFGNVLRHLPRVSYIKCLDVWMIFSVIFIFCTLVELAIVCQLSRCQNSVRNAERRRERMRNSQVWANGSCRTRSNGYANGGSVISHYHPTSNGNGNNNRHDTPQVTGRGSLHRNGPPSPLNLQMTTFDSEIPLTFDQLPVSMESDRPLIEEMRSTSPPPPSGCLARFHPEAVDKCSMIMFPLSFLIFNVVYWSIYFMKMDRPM
Experiment: Two-electrode voltage clamp, 5-HT evoked dose response, LGC-50 chimera with MOD-1 M3/4 loop
Details: Xenopus oocytes, TEVC; LGC-50 with M3/4 loop of MOD-1
Procedure: To investigate, we exchanged the intracellular M3/4 loop of LGC-50 with the equivalent region of MOD-1 (LGC-50:MOD-1 327–458) and expressed the chimera in oocytes. […] Dose response curves were calculated from the peak current during a 10 s agonist stimulation in ND96 solution, with a 60 s ND96 wash in between doses. […] Normalized dose response data was fitted to a nonlinear curve using a four parameters variable slope and the EC50 and Hill slope was calculated. […]
metric: pEC50
Please treat pEC50 as minus the base-10 logarithm of the molar concentration.

Ask | Can you look up the measured pEC50 of NCCc1c[nH]c2ccc(O)cc12 for me?
Reply | 6.07
